Reference for the values: the METLIN SMRT retention time set (Domingo-Almenara et al. 2019)

Experiment: gradient 5% acetonitrile 3 min, to 50% in 2 min, to 85% in 15 min, held 3 min, 100 µL/min
Settings: column: Zorbax Extend-C18 2.1 x 50 mm; eluents: water / acetonitrile, 0.1% formic acid
This section presents compounds with their documented RP-LC retention time values.

Compound	RP-LC retention time [s]
Cc1ccc(CNC(=O)C2(C)CCCN(C(=O)NCCc3ccccc3)C2)cc1 (centres undefined)	912
O=S(=O)(c1cc(-c2nnc(C3CCCC3)o2)co1)N1CCCCC1	1000
O=S(=O)(c1ccc2c(c1)OCCO2)N1CCN(S(=O)(=O)C2CC2)CC1	762
CCOCCCNC(=O)c1c2c(cn(-c3ccccc3)c1=O)C(=O)CC(C)(C)C2	591
O=C(Nc1ccc2c(c1)OCCO2)N1CC(c2nc(CCOCC3CC3)no2)C1	754
COc1ccc(C(=O)NC2CCCCCC2)cc1CN1CC(=O)N2CCCC2C1=O (centres undefined)	702
O=C(NCC1CCN(C(=O)Nc2ccc(F)cc2)CC1)c1ccsc1	682
COCCc1nncn1C1CCN(S(=O)(=O)c2cccc(F)c2)CC1	696
COc1ccc(CNC(=O)C2CCN(Cc3cn(C)c4ccc(OC)cc34)CC2)c(OC)c1	672
Cc1nc2ccc(NC(=O)Cc3ccc4c(c3)OCO4)cc2s1	716
CCCN1C(=O)COc2ccc(-c3noc(-c4ccc5cc[nH]c5c4)n3)cc21	1110
Cc1c(-c2noc(-c3ccc4cc[nH]c4c3)n2)nnn1-c1ccc(F)cc1	996
CS(=O)(=O)NC1CCN(C(=O)C2CCCC2)C1 (centres undefined)	691
COc1ccc(OC)c(NC(=O)C2CCN(S(=O)(=O)c3c(C)nn(-c4ccccc4)c3C)CC2)c1	974
COc1ccc(NC(=O)C2CC(=O)N(c3n[nH]c4cccc(F)c34)C2)cc1 (centres undefined)	717
O=C(CN1C(=O)C2CCCCN2c2ccc(S(=O)(=O)N3CCCC3)cc21)NC1CC1 (centres undefined)	770
O=C(NCc1ccc(F)cc1)c1c(O)c2cccnc2n(-c2cccc(F)c2)c1=O	1140
COc1ccc(OC)c(CN2C(=O)c3ccccc3C2C(=O)NCC2CCCO2)c1 (centres undefined)	641
Cc1ccccc1NC(=O)NCC(c1cccnc1)c1cn(C)c2ccccc12 (centres undefined)	680
CN(C)C(=O)C1CCN(c2nc3ccc(-c4ccc(F)cc4)nc3s2)CC1	912
O=C(Nc1ccc(Cn2cncn2)cc1)c1ccoc1	621
O=S(=O)(CCc1ccccc1)NCC(O)Cc1ccccc1 (centres undefined)	792
O=C(Nc1nnc(SCC(=O)N2CCCc3ccccc32)s1)c1cccs1	827
CCN1C=C(C(=O)OCc2cc(C)ccc2C)C(C)=NS1(=O)=O	1060
CN(C)CC[C@@H](c1ccc(Cl)cc1)c1ccccn1	659
O=c1c2sccc2n(Cc2nc(-c3ccccc3)no2)c(=O)n1CCc1ccccc1	1130
O=C(Nc1cccc(C(F)(F)F)c1)NC1CCN(c2ccc(F)cc2)C1=O (centres undefined)	923
COc1nc2ccccc2nc1N1CCCC(C(=O)Nc2cccc(Br)c2)C1 (centres undefined)	1300
O=C(NCc1ccc2c(c1)OCO2)C1CCCN(c2ncnc3c2nc2n3CCCCC2)C1 (centres undefined)	750
COc1ccc2[nH]cc(CCNC(=O)CCC3CCCCC3)c2c1	874
Cn1c(N2CCC(C(=O)NC3CCN(Cc4ccccc4)CC3)CC2)cc(=O)n(C)c1=O	578
COc1ccc(N2C=C(C(=O)N3CCCC3)S(=O)(=O)c3ccc(Cl)cc32)cc1OC	816
Cn1c(=O)c(N2CCN(C(=O)c3ccc(F)cc3Cl)CC2)nc2ccncc21	616
COC(=O)C1C(c2ccccc2)=NN(c2ccccc2)C1C(=O)OC (centres undefined)	1090
O=C(CCC1CCN(S(=O)(=O)c2ccccc2)CC1)N1CCCCC1	894
CCN1CCN(CCCNC(=O)CC2CCN(C(=O)c3[nH]c(C)c(C)c3C)CC2)CC1	578
CCOC(=O)c1cnc(NC(=O)c2ccc(S(=O)(=O)N3CCCCC3)cc2)s1	882
O=C(NC1CC1)c1ccc(OCC2CCCN(C(=O)C3CC3)C2)cc1 (centres undefined)	718
Cc1ccccc1-c1noc(-c2cccnc2N2CCN(c3ccccc3)CC2)n1	1410
